Assay: Single-dose pharmacokinetic study in mice
Format: in vivo, male C57BL/6 mice
Conditions: male, C57BL/6, mouse, plasma, IV 1 mg/kg, read-out: AUC0-last (intravenous injection)
Experimental: Objectives: To evaluate the pharmacokinetic behavior in male C57BL/6 mice and to determine the drug concentrations of the compound in the plasma, liver and cerebrospinal fluid after a single dose. Procedures: Healthy adult male C57BL/6 mice were selected for intragastric administration. […] After pretreatment of the samples, the drug concentration was measured by LC-MS/MS, and pharmacokinetic parameters were calculated using Phoenix WinNonlin software.
# AUC(0-t) annotations
Answer with the value and then the unit.

C[C@]1(c2ccc(-c3[nH]c4cc(F)cc5c4c3CONC5=O)cc2)CCCN1 : 0.958 µM·h

Now for a further compound.
**Query** Value lookup for AUC(0-t); key = CNCc1ccc(-c2[nH]c3cc(F)cc4c3c2CCNC4=O)cc1 [Rucaparib, reference compound]
**Result** 0.255 µM·h

---

biological target: CYP2C9 (Homo sapiens (Human)); assay: Inhibition against cytochrome P450 isoenzymes, CYP2C9; assay type: in vitro ADME; conditions: human liver microsomes
Sequence (P11712 whole entry): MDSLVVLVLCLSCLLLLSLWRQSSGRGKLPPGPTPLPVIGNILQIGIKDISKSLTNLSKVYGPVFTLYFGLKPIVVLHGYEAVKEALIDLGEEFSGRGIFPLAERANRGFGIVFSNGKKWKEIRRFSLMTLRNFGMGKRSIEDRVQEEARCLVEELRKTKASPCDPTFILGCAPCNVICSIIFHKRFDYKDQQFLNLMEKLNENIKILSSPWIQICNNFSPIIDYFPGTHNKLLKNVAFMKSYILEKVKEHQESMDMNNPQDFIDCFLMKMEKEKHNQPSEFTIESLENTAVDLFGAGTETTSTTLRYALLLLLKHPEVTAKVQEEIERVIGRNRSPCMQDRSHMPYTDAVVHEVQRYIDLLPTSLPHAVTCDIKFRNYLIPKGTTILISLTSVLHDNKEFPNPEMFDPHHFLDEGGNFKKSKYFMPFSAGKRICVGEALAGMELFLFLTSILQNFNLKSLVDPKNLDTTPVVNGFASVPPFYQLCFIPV
test readout: IC50

**Query** Value lookup for IC50; key = C[C@]1(c2ccc(-c3[nH]c4cc(F)cc5c4c3CONC5=O)cc2)CCCN1
**Result** > 50 µM

---

biological target: CYP1A2 (Homo sapiens (Human), UniProt P05177); assay: Inhibition against cytochrome P450 isoenzymes, CYP1A2; type: in vitro ADME; settings: human liver microsomes
Sequence (P05177 whole entry): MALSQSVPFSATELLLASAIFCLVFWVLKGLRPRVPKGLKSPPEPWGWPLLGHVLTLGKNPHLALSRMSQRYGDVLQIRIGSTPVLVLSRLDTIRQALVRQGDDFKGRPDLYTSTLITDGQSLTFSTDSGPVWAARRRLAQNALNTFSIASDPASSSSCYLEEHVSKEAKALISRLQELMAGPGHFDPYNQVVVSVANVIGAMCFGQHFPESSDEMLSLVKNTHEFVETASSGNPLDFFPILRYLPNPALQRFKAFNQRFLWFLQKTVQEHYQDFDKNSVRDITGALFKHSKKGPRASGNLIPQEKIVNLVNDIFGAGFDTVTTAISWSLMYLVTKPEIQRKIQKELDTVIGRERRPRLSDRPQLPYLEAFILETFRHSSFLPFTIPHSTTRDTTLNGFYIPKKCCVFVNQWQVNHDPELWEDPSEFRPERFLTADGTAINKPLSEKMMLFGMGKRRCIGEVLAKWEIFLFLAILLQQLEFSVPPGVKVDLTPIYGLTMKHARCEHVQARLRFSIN
test readout: IC50

**Query** Value lookup for IC50; key = C[C@]1(c2ccc(-c3[nH]c4cc(F)cc5c4c3CONC5=O)cc2)CCCN1
**Result** > 50 µM
